Below, each entry is listed alongside its reported folding stability dG unfold.
- Experimental Protocol: folding stability dG unfold (combined trypsin and chymotrypsin); higher = more stable
The response must be a number in kcal/mol with no trailing unit.

Examples from the recorded data:
{"Biosequence": "SAGGSAGGSAGGSPLPGQPPEVILIKLDKPVKVGQTITLPDGYKLEVNEETGYLLIVKTSAGGSAGGSAGGS [r4_78_TrROS_Hall]", "folding stability dG unfold, kcal/mol": 0.843}
{"Biosequence": "SAGGGPFGIPFPFPIEDPDRLDLVEGLVAELEEFFRSLGAGPLTAERVGDTTYVVLVPFDGKPIVSGSAGGS [r16_703_TrMRF]", "folding stability dG unfold, kcal/mol": 1.8}

What value of measured folding stability dG unfold is listed for SAGGSAGGSAGGGPPLPLRVEREEKVEKTPDDRVLIKRKVTVELPDRPLSEEESIEILLESAGGSAGGSAGG [r7_293_JUSTAS] ? -0.415

----------
- Experimental Protocol: folding stability dG unfold from trypsin proteolysis; higher = more stable
Below, each entry is listed alongside its reported folding stability dG unfold.

{"Biosequence": "SAGGSAGGSEWYEIRIPGIKGSADDLVEDIQDWFPAPNMKISIEEVEPMGDGLPGMTIKLRVNSAGGSAGGS [r12_348_TrROS]", "folding stability dG unfold": "0.951 kJ/mol"}
{"Biosequence": "SAGGKKKLTLEIKIKVPKEEEEKAKEKAKKLAEELAKKLKEAGYKVKVTVEIDEETGEITVKVEVELPSAGG [r13_755_TrROS_Hall]", "folding stability dG unfold": "11.9 kJ/mol"}
{"Biosequence": "SAGGKTVTTPEQILELIKENPGKTYTITITVPKENQKKVEELKKALEEAGLTVEENENGTLTVTIKPSAGGS [r16_335_TrROS_Hall]", "folding stability dG unfold": "9.19 kJ/mol"}
{"Biosequence": "SAGGSAGGSAGGSMLVRFPDKDVLSDGSEAEAERLAEELAAAGRPVELEFISPEEAAARSAGGSAGGSAGGS [r4_131_JUSTAS]", "folding stability dG unfold": "-0.942 kJ/mol"}
{"Biosequence": "SAGGSAGGSAVPLTVLEEEKGEGTVVVITRGPDGKLIVTTYTKDPNSEKWTEKRTVLAPEELLSAGGSAGGS [r20_70_JUSTAS]", "folding stability dG unfold": "7.22 kJ/mol"}
{"Biosequence": "SAGGSAGGAELKPVGNDPETGKTAVILLKKPDPTGLVLALEGLSPEELKKLAEIPGYEAVAVLASAGGSAGG [r6_185_TrMRF]", "folding stability dG unfold": "4.17 kJ/mol"}

Let us move to another entry and its folding stability dG unfold.
What value of measured folding stability dG unfold is listed for SSKTVTVTTEEEEKEAREKIKELVKPGKSVDVEITMTGPDGTRTRRTYKITTNPDGTITIEETETPLPPPSA [r9_1023_JUSTAS] ? 6.26 kJ/mol

----------
- Experimental Protocol: folding stability dG unfold from chymotrypsin proteolysis; higher = more stable
Binary call on folding stability dG unfold: True from 2 kcal/mol upward, False beneath that.

{"Biosequence": "SAGGSAGGSAGGLPINARPPNIAEVIRALRESGRYRVVEIRPFGDGAVIRVEKDGVPLESAGGSAGGSAGGS [r10_695_TrMRF]", "Label": "False"}

Kindly determine if folding stability dG unfold recorded for SASPDETVILEKVLPPSASPEEVEKEREEIREKLESLGAKVEVTIEPDPETGTIPIKITITKEQYEKLKSAG [r14_602_JUSTAS] is above or exactly 2 kcal/mol. False

Proceed to SAGSSSSLPNVLVVTLYLPDAPLPIVLPVDTPEDVELAKERVKEIEKELEELGLPVNVEFKYYPPGFPVSAG [r5_823_TrMRF] False
